Data origin: patent US20250333523A1

Target: T1, Avi/His-HuIL18BPa (recombinant human IL-18BP isoform A with Avi and poly-His tags) (human, biotinylated with BirA on the Avi tag in some assays)
T1 chain: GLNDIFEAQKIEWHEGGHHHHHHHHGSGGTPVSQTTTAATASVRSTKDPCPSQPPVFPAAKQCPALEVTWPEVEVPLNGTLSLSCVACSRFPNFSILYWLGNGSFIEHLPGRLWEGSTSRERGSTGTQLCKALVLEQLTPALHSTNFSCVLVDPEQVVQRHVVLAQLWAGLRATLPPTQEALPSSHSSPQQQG
Test: cell-based or functional assay
EC50 of IFNγ release, human PBMCs values by entry

| binder | units label | EC50 of IFNγ release, human PBMCs |
| --- | --- | --- |
| anti-IL18BP antibody BP-04 (antibody, V domains shown, also called BP-04 (hybridoma); BP-04 (parental)) VH: HVHLHQSGAELVRPGVSVKISCRGSGYTFTDYDVHWVKQSHAKSLEWIGVISTYYGDVGYNQEFKGKATMTLDKSSSTSYLELARLTSEDSAIYYCARSGTYYYGTRESHALDYWGQGTSVTVSS VL: DIQMTQSPASLSVSVGETVTITCRTSDNVYSNLAWYQQKQGKSPQLLVYGAINLADGVPSRFSGSGSDTQYSLKINNLQSEDFGSYYCQHFWGNPYTFGGGTKLEIK | nM | 15.7 |
| anti-IL-18BP antibody variant BP-04.28 (antibody, V domains shown) VH: QVQLVQSGAEVKKPGASVKVSCKASGYTFTDYDMHWVRQAPGQGLEWMGIISTYYGDVSYAQKFQGRVTMTRDKSTSTVYMELSSLRSEDTAVYYCARSGTYYYGTRESHPLDYWGQGTLVTVSS VL: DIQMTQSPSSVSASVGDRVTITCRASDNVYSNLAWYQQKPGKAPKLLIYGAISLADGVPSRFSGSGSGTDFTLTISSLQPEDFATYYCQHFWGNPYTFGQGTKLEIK | nM | 71.2 |
| anti-IL-18BP antibody variant BP-04.16 (antibody, V domains shown) VH: QVQLVQSGAEVKKPGASVKVSCKASGYTFTDYDMHWVRQAPGQGLEWMGIISTYYGDVSYAQKKQGRVTMTRDKSTSTVYMELSSLRSEDTAVYYCARSGTYYYGTRESHAFDYWGQGTLVTVSS VL: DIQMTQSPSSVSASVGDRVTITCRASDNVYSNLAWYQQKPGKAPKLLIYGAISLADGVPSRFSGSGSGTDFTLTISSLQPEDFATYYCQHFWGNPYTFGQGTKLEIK | nM | 3.34 |
